- assay: Acute toxicity, mouse, intraperitoneal
- experimental parameters: in vivo, ip, NMRI mice, intraperitoneal, 14 days observation, read-out: LD 50 Maus i.p.
Field: LD50 at 336 h. Provide a value for each of the compounds that follow.

Q: Recorded LD50 at 336 h of `CCOC(=O)C(=O)Nc1nc2c(s1)CCC2` , please.
Ans: ~464 mg/kg

Q: Recorded LD50 at 336 h of CCOC(=O)C(=O)Nc1nc2ccccc2s1 [V1, N-Benzthiazol-2-yl-oxamidsäureethylester, reference compound] , please.
Ans: ~464 mg/kg

###

- Test system: passiven cutanen Anaphylaxie (PCA)
- assay: Passive cutaneous anaphylaxis (PCA) in rats sensitised with ovalbumin antiserum
- Format: in vivo, Ratte
- experimental parameters: ip; intraperitoneal, 1 mg/kg test substance; PCA rat; mean ± SX; read-out: % Hemmung X ± SX
endpoint name: inhibition in vivo at 1 mg/kg

Q: Given the entry `CCOC(=O)C(=O)Nc1nc2c(s1)C(C)(C)CC(C)(C)C2` , what inhibition in vivo at 1 mg/kg was observed with passiven cutanen Anaphylaxie (PCA)?
Ans: 15%

Q: Given the entry `CCOC(=O)C(=O)Nc1nc2c(s1)CCCC2` , what inhibition in vivo at 1 mg/kg was observed with passiven cutanen Anaphylaxie (PCA)?
Ans: 61%

Q: Given the entry `CC(C)(C)OC(=O)C(=O)Nc1nc2c(s1)CCCC2` , what inhibition in vivo at 1 mg/kg was observed with passiven cutanen Anaphylaxie (PCA)?
Ans: 33%

Q: Given the entry O=C(O)c1cc(=O)c2c(OCC(O)COc3cccc4oc(C(=O)O)cc(=O)c34)cccc2o1 [Cromolyne, reference compound] , what inhibition in vivo at 1 mg/kg was observed with passiven cutanen Anaphylaxie (PCA)?
Ans: 21%

Q: Given the entry `O=C(O)C(=O)Nc1nc2c(s1)CCCC2` , what inhibition in vivo at 1 mg/kg was observed with passiven cutanen Anaphylaxie (PCA)?
Ans: 63%

Q: Given the entry `CCOC(=O)C(=O)Nc1nc2c(s1)CCCCC2` , what inhibition in vivo at 1 mg/kg was observed with passiven cutanen Anaphylaxie (PCA)?
Ans: 34%

Q: Given the entry `CCOC(=O)C(=O)Nc1nc2c(s1)CCC2` , what inhibition in vivo at 1 mg/kg was observed with passiven cutanen Anaphylaxie (PCA)?
Ans: 25%

Q: Given the entry CCOC(=O)C(=O)Nc1nc2ccccc2s1 [V1, N-Benzthiazol-2-yl-oxamidsäureethylester, reference compound] , what inhibition in vivo at 1 mg/kg was observed with passiven cutanen Anaphylaxie (PCA)?
Ans: 26%
